molecular target: porcine kidney DAO (Sus scrofa, UniProt P00371)
Sequence (P00371 whole entry): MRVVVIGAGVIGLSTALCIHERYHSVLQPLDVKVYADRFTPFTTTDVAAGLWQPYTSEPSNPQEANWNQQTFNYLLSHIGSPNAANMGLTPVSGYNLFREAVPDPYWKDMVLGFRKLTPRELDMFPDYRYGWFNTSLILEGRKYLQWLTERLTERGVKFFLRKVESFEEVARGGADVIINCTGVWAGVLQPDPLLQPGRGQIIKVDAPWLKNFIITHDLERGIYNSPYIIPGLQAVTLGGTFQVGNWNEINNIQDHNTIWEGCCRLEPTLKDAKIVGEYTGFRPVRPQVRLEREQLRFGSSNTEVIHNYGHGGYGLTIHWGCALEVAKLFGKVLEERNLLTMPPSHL
MEASURED ATTRIBUTE: pIC50
Note on units: pIC50 is unitless, being -log10 of a concentration expressed in mol/L.

| COMPOUND | pIC50 |
| --- | --- |
| COc1ccc(C(=O)Oc2ccc3[nH]c([S+]([O-])Cc4ncc(C)c(OC)c4C)nc3c2)cc1 (stereo not shown) | 4.98 |
| COc1c(C)cnc(C[S+]([O-])c2nc3cc(OC(=O)Cc4ccccc4)ccc3[nH]2)c1C (stereo not shown) | 4.68 |
| COC(=O)c1ccc2c(c1)N=C(NCc1ncc(C)c(OC)c1C)N(CCC1=CCCCC1)C2 | 3.31 |
| COc1c(C)cnc(C[S+]([O-])c2nc3cc(OC(=O)OC(C)(C)C)ccc3[nH]2)c1C (stereo not shown) | 4.19 |
| C/C=C\C(=O)Oc1ccc2[nH]c([S+]([O-])Cc3ncc(C)c(OC)c3C)nc2c1 (stereo not shown) | 4.95 |

Please report the recorded pIC50 for COc1c(C)cnc(C[S+]([O-])c2nc3cc(OC(=O)C4CC4)ccc3[nH]2)c1C (stereo not shown) .
4.33

Please report the recorded pIC50 for COc1c(C)cnc(C[S+]([O-])c2nc3cc(OC(=O)C4CCC4)ccc3[nH]2)c1C (stereo not shown) .
4.68
